# Tested on: OVCAR-4 ovarian
# TEST_SUMMARY: NCI tumour cell line growth inhibition, 48 h
Record form. Attribute: TGI. Fill in for each entry.
Numbers only, in µM.

Worked examples follow.
compound=COc1cc(C(=O)/C=C/c2cccnc2Nc2ccc(Cl)cc2)cc(OC)c1OC assayed_target="OVCAR-4 ovarian" reported=2.98
compound=COC1=CC(=O)C2=C(C1=O)[C@H]1CC[C@]3(C)C(=O)CC[C@H]3[C@@H]1CC2 assayed_target="OVCAR-4 ovarian" reported=29.5
compound=COc1ccc(NC(=O)CSc2nc(C)nc3c2sc(=S)n3-c2ccccc2)cc1 assayed_target="OVCAR-4 ovarian" reported=9.29
compound=Oc1c(Cl)cc(Cl)c(Cl)c1Cc1c(O)c(Cl)cc(Cl)c1Cl assayed_target="OVCAR-4 ovarian" reported=14
compound="CCCCCCCCCCCCCCCC(=O)OCC1OC(OCCCC)[C@H](O[C@@H]2OC(C)C(OC(=O)CCC)C(O)C2O)C(O)C1O (some centres undefined)" assayed_target="OVCAR-4 ovarian" reported=34.2
compound=O=C(Cn1c2ccc(Br)cc2c2nc3ccccc3nc21)NNC(=O)NC1CCCCC1 assayed_target="OVCAR-4 ovarian" reported=42.9

Could you tell me TGI for each of these compounds? They are listed below.
1. NC(N)=NCCCC(Nc1c2ccccc2nc2ccccc12)C(=O)O (centres undefined)
2. C=C(C)C1Cc2c(cc3c(c2O)c(=O)c2ccccc2n3C)O1 (centres undefined)
3. Nc1nc(N)c2c(Cl)c(CNc3ccc(Cl)c(Cl)c3)ccc2n1

43.4
22.3
16.9

###

# Tested on: SF-268 CNS
# TEST_SUMMARY: NCI tumour cell line growth inhibition, 48 h
TEST_READOUT: TGI

Worked examples follow.
molecule=COC(=O)c1ccccc1/C=C1\Cc2ccc3c(c2C1=O)CCC3 reported="> 100 µM"
molecule="c1ccc(-c2sc(-c3ccccc3)c3c2C(c2ccccc2)c2c(-c4ccccc4)sc(-c4ccccc4)c2C3c2ccccc2)cc1 (stereo not given)" reported="> 100 µM"
molecule=CC(C)(C)c1cc(Cc2ccc(S(C)(=O)=O)cc2)c(O)c(C(C)(C)C)c1 reported="25.9 µM"
molecule=CC(=O)Nn1c(Cc2ccc(Cl)cc2)nn(C)c1=O reported="> 100 µM"
molecule="Cc1cc(C(O)CCCc2ccccc2)cc(C)c1O (stereo not given)" reported="> 100 µM"

Could you tell me TGI for each of these molecules? They are listed below.
1. O=C(O)C1CC[N-]CC1.O=C(O)C1CC[N-]CC1.[NH2-].[NH2-].[Pt+4]
2. C#CC(O)/C=C/C(O)CCCC(O)CC#CC(O)C#CCCCCC(O)/C=C/CCCCCC(=O)CCCCCCCCCCCCCC(O)C(O)C#CC(=O)O (stereo not given)
3. Nc1ccc(C2(c3ccc(N)cc3)C3CC4CC(C3)CC2C4)cc1
4. CC(=O)NNc1nc(C)c(C(=O)/C=C/c2ccc(N(C)C)cc2)s1

1: > 100 µM; 2: > 25 µM; 3: 27.3 µM; 4: > 100 µM

Per the record, CC1(C)COC(c2cccc(C(O)c3ccc(Cl)cc3)c2)=N1 (stereo not given) has TGI of 87.3 µM

###

# Test system: HT29 colon
# TEST_SUMMARY: NCI tumour cell line growth inhibition, 48 h
TEST_READOUT: TGI

Worked examples follow.
molecule=COc1ccc(/C=C/C(=O)C(=O)/C=C/c2ccc(OC)c(OC)c2)cc1OC assayed_target="HT29 colon" reported="2.62 µM"
molecule="O=C1CC(=O)NC(=NN2C(=O)CSC2c2ccc(Cl)cc2)N1 (configuration not stated)" assayed_target="HT29 colon" reported="> 100 µM"
molecule="COC12OCCN(C)C1=CC(=O)C1N=NCC12 (configuration not stated)" assayed_target="HT29 colon" reported="> 100 µM"
molecule=O=C(CCl)N1CCN(c2ccccc2)CC1 assayed_target="HT29 colon" reported="41.4 µM"
molecule=CCOc1cc(CC[N+](C)(C)C)c2c(ccc3ccc(OC)c(OC)c32)c1OC assayed_target="HT29 colon" reported="> 100 µM"
molecule=CC(=O)OC/C=C\Cn1ncc(=O)[nH]c1=O assayed_target="HT29 colon" reported="29.9 µM"
molecule="O=C1NC(c2cccc3ccccc23)Nc2ccc(Cl)cc21 (configuration not stated)" assayed_target="HT29 colon" reported="0.105 µM"
molecule=CC(=O)c1ccc(NC(=O)C(=O)CC(=O)c2sc(-n3nc(-c4ccccc4)cc3-c3ccccc3)nc2C)cc1 assayed_target="HT29 colon" reported="> 100 µM"
molecule=COC(=O)c1ccccc1/C=C1\Cc2ccc3c(c2C1=O)CCC3 assayed_target="HT29 colon" reported="> 100 µM"
molecule="COC(=O)C(Cc1c(-c2[nH]c3ccccc3c2CC(NC(C)=O)C(=O)OC)[nH]c2ccccc12)NC(C)=O (configuration not stated)" assayed_target="HT29 colon" reported="> 100 µM"

Could you tell me TGI for each of these molecules? They are listed below.
1. COC(=O)C1C(=O)C(C(=O)OC)C2CCC1N2C (configuration not stated)
2. CCN1CCCCCCCCCC(=N/O)/C(=N\O)C1
3. NC(N)=N/N=C/c1c(-c2ccc([N+](=O)[O-])cc2)nc2sc(Cl)cn12
4. O=C1CCC2(c3ccccc3)OCC([C@@H](O)c3ccccc3)N12 (some centres not stated)
5. O=S(=O)(N=[Se](=O)(c1ccccc1)c1ccccc1)c1ccccc1
6. COC(=O)NC1=Nc2ccccc2C(=O)NN1

1. > 100 µM
2. > 100 µM
3. 3 µM
4. > 100 µM
5. > 100 µM
6. > 100 µM
